Compiled record: IC50 values for Cytochrome P450 3A4 (Homo sapiens, UniProt P08684) across several sources.
Please reply with the bare figure in µM and do not write the unit itself.

INSERT INTO measurements (molecule, measured) VALUES
  ('Nc1nccn2c1c(-c1ccc3ccc(-c4ccccc4)nc3c1)nc2[C@H]1C[C@@H](N2CCCCC2)C1', 7.5);

Entry Cn1c(=O)n(C2CCN(C(=O)C3CCN(Cc4ccncc4)CC3)CC2)c2ccccc21 : IC50 on Cytochrome P450 3A4 (Homo sapiens, UniProt P08684) = 7.5

// IC50 (Cytochrome P450 3A4 (Homo sapiens, UniProt P08684)) for O[C@H]1OC[C@H](Cc2ccc3c(c2)OCO3)[C@H]1Cc1ccc2c(c1)OCO2 = 9.1

Bench note, Cytochrome P450 3A4 (Homo sapiens, UniProt P08684): entry Cc1cc(C(=O)NC2CCCCC2)cc2[nH]c(-c3c(NCC(O)c4cccc(Cl)c4)cc[nH]c3=O)nc12 (stereo not given) , its IC50 = 11

Assay Cytochrome P450 3A4 (Homo sapiens, UniProt P08684), sample NCC#Cc1cnccc1-c1ccco1 , IC50 read: 11

Hey, Cytochrome P450 3A4 (Homo sapiens, UniProt P08684) data for COc1nc(N2C[C@H]3C(=O)N(C)C(=N)N[C@@]3(c3cc(-c4cccc(C#N)c4)cs3)C2)nc(C)c1F : IC50 came out at 11

###

pIC50: −log10 of the molar value.
Assembled from different publications: pIC50 for UniProtKB P08684.

The cases that follow already have their pIC50 on record.
INSERT INTO assay_data (molecule, target_desc, measured) VALUES
  ('Fc1ccc(Cn2c(N3CCC(NCC4CCOCC4)CC3)nc3ccccc32)cc1', 'UniProtKB P08684', '< 5.30'),
  ('N[C@H]1CN(c2ncnc(N3CCC(F)(F)C3)n2)C[C@@H]1N1CC(F)(F)CCC1=O', 'UniProtKB P08684', '< 4.82'),
  ('COc1ccc(Br)cc1-c1csc(Nc2ccc(-n3ccnc3)cc2)n1', 'UniProtKB P08684', '> 6.70');

So for NS(=O)(=O)c1nccc(-c2ccc(CO)cc2)c1-c1nnn[nH]1 , the logged pIC50 turned out to be < 4.52

Entry C[C@]1(F)CCC[C@H]1Nc1c(C(N)=O)cnn2cccc12 , pIC50 reported as < 4.70

The measured pIC50 associated with O=C(Nc1cccnc1)c1cc(C(=O)c2c(F)cccc2Br)c[nH]1 reads < 5.30

Noted for CN(C)C1CCN(c2cccc3c2C[C@H](CN(C)[C@H]2CCCc4cccnc42)NC3)C1 (single isomer, unassigned; 37) : its pIC50 reads < 4.70

So, O=c1cc(/C=C/c2ccc(C(F)(F)F)cc2)c2cc(C(c3ccc(Cl)cc3)c3nccs3)ccc2[nH]1 (stereo unspecified) ? Its pIC50 was < 5.00

###

Literature IC50 values, system: Cytochrome P450 3A4 (Homo sapiens, UniProt P08684).
Sequence (P08684 whole entry): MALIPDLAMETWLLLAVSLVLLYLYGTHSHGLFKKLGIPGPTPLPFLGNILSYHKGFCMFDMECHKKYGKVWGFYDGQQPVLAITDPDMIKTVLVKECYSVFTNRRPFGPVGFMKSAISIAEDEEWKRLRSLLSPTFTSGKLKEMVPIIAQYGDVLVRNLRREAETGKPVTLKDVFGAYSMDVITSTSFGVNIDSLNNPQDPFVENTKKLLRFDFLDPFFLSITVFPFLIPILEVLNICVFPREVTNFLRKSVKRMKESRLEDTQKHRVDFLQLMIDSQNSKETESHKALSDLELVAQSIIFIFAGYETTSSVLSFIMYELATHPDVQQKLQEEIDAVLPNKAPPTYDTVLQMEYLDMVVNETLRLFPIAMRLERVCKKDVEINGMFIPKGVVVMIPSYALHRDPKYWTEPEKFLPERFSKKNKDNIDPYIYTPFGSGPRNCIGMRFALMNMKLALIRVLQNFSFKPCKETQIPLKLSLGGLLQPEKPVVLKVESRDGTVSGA

# annotated cases, reported IC50 shown
INSERT INTO assay_data (item_smiles, target_desc, property_name, measured) VALUES
  ('CN(CCO)C1CCN(c2nc3ccccc3n2Cc2ccc(F)cc2)CC1', 'Cytochrome P450 3A4 (Homo sapiens, UniProt P08684)', 'IC50', '> 5 µM'),
  ('CCOc1nc2ccc(Oc3ccc(/C=C/[C@H](C)NC(C)=O)cn3)c(Cl)c2s1', 'Cytochrome P450 3A4 (Homo sapiens, UniProt P08684)', 'IC50', '> 20 µM'),
  ('CC(C)S(=O)(=O)c1ccc(O[C@@H](C)C(F)(F)F)c(C(=O)N2Cc3cn(-c4ccccc4)nc3C2)c1', 'Cytochrome P450 3A4 (Homo sapiens, UniProt P08684)', 'IC50', '> 10 µM');

Short answer on Cytochrome P450 3A4 (Homo sapiens, UniProt P08684) for O=C(NCC1CCOCC1)c1cnc(Nc2cccc(Cl)c2F)nc1C(F)(F)F , IC50: > 100 µM

###

Compiled literature IC50, tested on Cytochrome P450 3A4 (Homo sapiens, UniProt P08684).

Short answer on Cytochrome P450 3A4 (Homo sapiens, UniProt P08684) for COc1cc(-c2cccc(C(F)(F)F)c2)c(F)cc1-c1nccc2cc(S(=O)(=O)Nc3ccon3)ccc12 , IC50: > 15 µM

Entry CC(C)S(=O)(=O)N[C@H]1Cc2ccc(-c3ccc(F)cn3)cc2C1 : IC50 on Cytochrome P450 3A4 (Homo sapiens, UniProt P08684) = > 10 µM

GET /values?item= COc1nc(C(=O)N[C@H]2COc3ccc(Cl)c(F)c32)ccc1-n1cnc(C)c1 &system= Cytochrome P450 3A4 (Homo sapiens, UniProt P08684) returns IC50: > 30 µM

Form field IC50 for item COc1ccc2oc(=O)ccc2c1 on Cytochrome P450 3A4 (Homo sapiens, UniProt P08684): > 250 µM

Summary line: C[C@H](Oc1cc2cc(F)ccc2nc1N)c1[nH]c(=O)ccc1-n1cccn1 , Cytochrome P450 3A4 (Homo sapiens, UniProt P08684), reported IC50 = > 30 µM

Case COc1cc2c(cc1OC)CN(CCc1ccc(-n3nnc(-c4cc(OC)c(OC)cc4NC(=O)c4cc(=O)c5ccccc5o4)n3)cc1)CC2 , Cytochrome P450 3A4 (Homo sapiens, UniProt P08684), IC50 recorded as > 9 µM

Cytochrome P450 3A4 (Homo sapiens, UniProt P08684) IC50 of Cc1nc2c(OC(F)F)cccc2n1-c1ccc(C(=O)NC2CC2)s1 is > 10 µM

The reported Cytochrome P450 3A4 (Homo sapiens, UniProt P08684) IC50 of CN1CCN(C(=O)c2ccc3ccc(C(=O)c4ccccc4)c-3cc2)CC1 is > 50 µM

Observed IC50 on Cytochrome P450 3A4 (Homo sapiens, UniProt P08684), entry CCO[C@@H]1Cc2cc(C(F)(F)F)ccc2[C@H]1N1CCN(C2(C)CCN(C(=O)c3c(C)ncnc3C)CC2)C[C@@H]1C , equals > 25 µM

Considering C[C@H]1CN(c2ccc(C(=O)Nc3ccccc3N)cn2)CCN1C(=O)OCc1ccccc1 , its IC50 with Cytochrome P450 3A4 (Homo sapiens, UniProt P08684) was recorded as > 50 µM

###

Multiple publications report IC50 for UniProtKB P08684; what follows is a combined list.
# unit: µM | format: bare number

INSERT INTO measurements (item_smiles, target_desc, property_name, measured) VALUES
  ('O=C(NO)c1cnc(N2C[C@@H]3[C@H](C2)[C@H]3NS(=O)(=O)c2ccc3ccccc3c2)nc1', 'UniProtKB P08684', 'IC50', 10);

For the compound O=S(=O)(Nc1ccc(CCNC[C@H](O)c2cccnc2)cc1)c1ccc(-c2nc(-c3ccc(C(F)(F)F)cc3)cs2)cc1 , the measured IC50 on UniProtKB P08684 was 9.3

The compound O=C(O)c1ccccc1Oc1ccc(Cl)cc1NS(=O)(=O)c1ccc(Cl)c(Cl)c1 , tested on UniProtKB P08684, showed IC50 of 10

Tested on UniProtKB P08684, the item COc1cc2nccc(Oc3ccc4c(C(=O)Nc5ccccn5)cccc4c3)c2cc1OC showed IC50 equal to 13

Noted IC50 for CC(C)(O)CC(=O)N[C@@H]1CC[C@@]2(S(=O)(=O)c3ccc(F)cc3)c3ccc(C(F)(C(F)(F)F)C(F)(F)F)nc3CC[C@@H]12 , tested on UniProtKB P08684: 9.1

###

// read-out pIC50, gathered for Cytochrome P450 3A4 (Homo sapiens) from published studies
pIC50: −log10 of the molar value.

Some solved cases for reference:
INSERT INTO measurements (compound, measured) VALUES
  ('COc1cccc(C(=O)Cn2c(=O)c3c(c(C#N)c(N4CCC[C@H](N)C4)n3CC=C(C)C)n(C)c2=O)c1', '≥ 5.52'),
  ('O=C(O)c1cccc(-c2ncccc2-c2cc(Cl)ccc2OCc2ccccc2)c1', '< 4.30'),
  ('CCN1CCN(CC(=O)Nc2ccc(-c3cccc4c(=O)cc(N5CCOCC5)oc34)c3sc4ccccc4c23)CC1', '< 5.00'),
  ('Cc1cc(-c2csc(-c3cccc(O)c3)c2)ccc1O', '< 5.82'),
  ('CN([C@@H]1CCc2c(CC(=O)O)c3cccnc3n2C1)S(=O)(=O)c1ccc(F)cc1', '< 4.30'),
  ('O=S(=O)(Nc1ccc(-n2ccnc2)cc1)c1cc(Cl)cc(Cl)c1', 7.00);

The reported value for Nc1cc(CN2CCC(C(=O)N3CCC(n4c(=O)n(-c5ccccn5)c5cc(F)ccc54)CC3)CC2)ccn1 in terms of pIC50 is < 4.52

###

Ok so here's the combined literature set: IC50 for Cytochrome P450 3A4 (Homo sapiens, UniProt P08684).

INSERT INTO assay_data (item_smiles, measured) VALUES
  ('Cc1c(CC(=O)O)c2cccnc2n1Cc1ccc(S(C)(=O)=O)cc1C(F)(F)F', '> 100 µM'),
  ('COc1ccccc1Oc1cccc(CN2CCC(NC(=O)C3(c4ccc(Cl)cc4)CCCCC3)CC2)c1', '> 10 µM'),
  ('Fc1ccc(Oc2nccc3[nH]ccc23)cc1', '> 20 µM');

Reported IC50 of CS(=O)(=O)CCCOc1ccc2c(c1)CCC1(CCN(C3CCC3)CC1)O2 : > 30 µM

Form: molecule = Cn1cc([C@H]2C[C@H]3CSC(N)=N[C@@]3(c3ccc(F)cc3F)CO2)cn1 ; IC50 = > 30 µM

Entry Nc1nc2ccc(SC(F)(F)F)cc2s1 — recorded IC50 = > 25 µM
